- target_entity: human recombinant sGC enzyme (Homo sapiens (Human), UniProt Q02108+Q02153)
- procedure_details: SEC competition binding assay with [3H] Compound B radioligand
- condition_context: displacement of 1.6 nM [3H] Compound B, 24 h at 37° C.
Examples of compounds with documented Ki follow.
Answer format: numeric, nM implied, no suffix.

>  <compound>
CC1(c2ccc(Cl)c(O)c2)C(=O)Nc2nc(-c3cn4ncnc4c(CCC(F)(F)C(F)(F)F)n3)nc(NCCC(F)(F)F)c21 (stereo not shown) [Example 138-A]

>  <target_entity>
human recombinant sGC enzyme (Homo sapiens (Human), UniProt Q02108+Q02153)

>  <uom>
nM

>  <Ki>
4.62

$$$$

IN: Give reported Ki value for CC1(c2cccc(O)c2)C(=O)Nc2nc(-c3cn4ccnc4c(Cc4ccc(F)cc4)n3)nc(N)c21 (stereo not shown) [Example 31-B]
OUT: 0.274

IN: Give reported Ki value for CC1(c2ccc(Cl)c(O)c2)C(=O)Nc2nc(-c3cn4ncnc4c(CCCC(F)(F)F)n3)nc(N)c21 (stereo not shown) [Example 87-A]
OUT: 2.8

IN: Give reported Ki value for CC1(c2ccc(Cl)c(O)c2)C(=O)Nc2nc(-c3cn4ccnc4c(Cc4cccc(F)c4)n3)nc(NCC(O)C(F)(F)F)c21 (stereo not shown) [Example 131-AA]
OUT: 0.884

IN: Give reported Ki value for CC1(c2cc(O)c(C(F)(F)F)cn2)C(=O)Nc2nc(-c3cn4ccnc4c(Cc4cccc(F)c4)n3)nc(N)c21 (stereo not shown) [Example 145-B]
OUT: 0.416

IN: Give reported Ki value for CC1(c2cccc(O)c2)C(=O)Nc2nc(-c3cn4ncnc4c(CCC(F)(F)C(F)(F)F)n3)nc(N)c21 (stereo not shown) [Example 78-B]
OUT: 8.88

IN: Give reported Ki value for CCCCc1nc(-c2nc(N)c3c(n2)NC(=O)C3(C)c2ccc(O)c(F)c2)cn2ncnc12 (stereo not shown) [Example 71-B]
OUT: 4.08
